target: Aldo-keto reductase family 1 member B1 (Homo sapiens, UniProt P15121); assay: The compound was tested for inhibitory activity against aldose reductase from human placenta
MEASURED_QUANTITY: pKi
Bear in mind: pKi is minus log10 of a mol/L concentration; give just that figure.

These recorded examples may help you get a feel for the data.
>>> print(df.to_string())
                         chemical_structure  obs_value
0  CCCCC(=O)Oc1c(-c2c(C)cc3c(C(C)C)c(O)c(O)c(C#N)c3c2OC(=O)CCCC)c(C)cc2c(C(C)C)c(O)c(O)c(C#N)c12       5.33
1  CCCC(=O)Oc1c(-c2c(C)cc3c(C(C)C)c(O)c(O)c(C#N)c3c2OC(=O)CCC)c(C)cc2c(C(C)C)c(O)c(O)c(C#N)c12       5.28
2  Cc1cc2c(C(C)C)c(O)c(O)c3c2c(c1-c1c(C)cc2c(C(C)C)c(O)c(O)c4c2c1OC4=O)OC3=O       6.82
3  CCC(=O)Oc1c(-c2c(C)cc3c(C(C)C)c(O)c(O)c(C#N)c3c2OC(=O)CC)c(C)cc2c(C(C)C)c(O)c(O)c(C#N)c12       5.17
4  COc1c(OC)c2c3c(c(-c4c(C)cc5c(C(C)C)c(OC)c(OC)c6c5c4OC6=O)c(C)cc3c1C(C)C)OC2=O       4.32

Prompt line: Find the recorded pKi belonging to COc1c(-c2c(C)cc3c(C(C)C)c(O)c(O)c(C=O)c3c2OC)c(C)cc2c(C(C)C)c(O)c(O)c(C=O)c12 and report it.
Response line: 6.51

Prompt line: Find the recorded pKi belonging to CC(=O)Oc1c(-c2c(C)cc3c(C(C)C)c(O)c(O)c(C#N)c3c2OC(C)=O)c(C)cc2c(C(C)C)c(O)c(O)c(C#N)c12 and report it.
Response line: 5.14

Prompt line: Find the recorded pKi belonging to CCCCCC(=O)Oc1c(-c2c(C)cc3c(C(C)C)c(O)c(O)c(C#N)c3c2OC(=O)CCCCC)c(C)cc2c(C(C)C)c(O)c(O)c(C#N)c12 and report it.
Response line: 5.51

----------
target: UniProt:P15121; experiment: The compound was tested for inhibitory activity against Aldose reductase from human placenta
Listing of entries alongside the reported Ki.
Give just the number in µM; leave the unit off.

These recorded examples may help you get a feel for the data.
                         chemical_structure  units_label  obs_value
0  Cc1cc2c(C(C)C)c(O)c(O)c(C#N)c2c(OC(=O)C(C)(C)C)c1-c1c(C)cc2c(C(C)C)c(O)c(O)c(C#N)c2c1OC(=O)C(C)(C)C           µM        2.5
1  Cc1cc2c(C(C)C)c(O)c(O)c(/C=N/O)c2c(O)c1-c1c(C)cc2c(C(C)C)c(O)c(O)c(/C=N/O)c2c1O           µM        7.8
2  Cc1cc2c(C(C)C)c(O)c(O)c3c2c(c1-c1c(C)cc2c(C(C)C)c(O)c(O)c4c2c1OC4=N)OC3=N           µM        9.3

Prompt line: Lab note: need Ki with UniProt:P15121 for entry COc1c(OC)c(C=O)c2c(O)c(-c3c(C)cc4c(C(C)C)c(OC)c(OC)c(C=O)c4c3O)c(C)cc2c1C(C)C , please look it up.
Response line: 9.7

Prompt line: Lab note: need Ki with UniProt:P15121 for entry COc1c(-c2c(C)cc3c(C(C)C)c(O)c(O)c(C#N)c3c2OC)c(C)cc2c(C(C)C)c(O)c(O)c(C#N)c12 , please look it up.
Response line: 2.8

Prompt line: Lab note: need Ki with UniProt:P15121 for entry COc1c(OC)c(C=O)c2c(OC)c(-c3c(C)cc4c(C(C)C)c(OC)c(OC)c(C=O)c4c3OC)c(C)cc2c1C(C)C , please look it up.
Response line: 56

----------
target: Aldo-keto reductase family 1 member B1 (Homo sapiens); experiment: The compound was tested for inhibitory activity against Aldose reductase from human placenta
Listing of entries alongside the reported Ki.
Give just the number in nM; leave the unit off.

Prompt line: Find the recorded Ki belonging to COc1c(O)c(C=O)c2c(O)c(-c3c(C)cc4c(C(C)C)c(OC)c(O)c(C=O)c4c3O)c(C)cc2c1C(C)C and report it.
Response line: 1500

Prompt line: Find the recorded Ki belonging to COc1c(-c2c(C)cc3c(C(C)C)c(O)c(O)c(CO)c3c2OC)c(C)cc2c(C(C)C)c(O)c(O)c(CO)c12 and report it.
Response line: 4300

Prompt line: Find the recorded Ki belonging to C/C=C/C(=O)Oc1c(-c2c(C)cc3c(C(C)C)c(O)c(O)c(C#N)c3c2OC(=O)/C=C/C)c(C)cc2c(C(C)C)c(O)c(O)c(C#N)c12 and report it.
Response line: 1300

Prompt line: Find the recorded Ki belonging to Cc1cc2c(C(C)C)c(O)c(O)c(C=O)c2c(O)c1-c1c(C)cc2c(C(C)C)c(O)c(O)c(C=O)c2c1O and report it.
Response line: 500
